Attribute: binding affinity ratio (IC50 of standard peptide / IC50 of test peptide)
# target.of.assay: HLA-A*1101 (human)
# assay.protocol: competition with 125I-labelled standard peptide for purified HLA-A*1101, gel filtration
quantity.measured: binding affinity ratio (IC50 of standard peptide / IC50 of test peptide)

[[record]]
binder = "ISLNSGQKK (modifications not checked) [HPV18 E1 position 116 peptide …]"
recorded_result = 0.0026

[[record]]
binder = "AGHYRGQCH (modifications not checked) [HPV18 E6 131 …]"
recorded_result = 0.0002

[[record]]
binder = "DSIPHAACH (modifications not checked) [HPV18 E6 58 …]"
recorded_result = 0.0002

[[record]]
binder = "GVLILALLR (modifications not checked) [HPV18 E1 position 279 peptide …]"
recorded_result = 0.14

